System: MOLM-13 cells
Assay: MOLM-13 cellular assay (CellTiter-Glo cell viability)
Assay type: cell-based
Settings: Homo sapiens, MOLM-13, 72 h, 72 hours exposure, cell viability by CellTiter-Glo
Description: In Vitro Assay: MOLM-13 Cellular Assay MOLM-13 cells were obtained from DSMZ and were maintained in RPMI 1640+Glutamax+25 mM HEPES (Invitrogen, catalog number 72400) supplemented with 10% heat inactivated fetal bovine serum (FBS; Invitrogen, catalog number 16140). The day prior to assay set-up, cells were pelleted, resuspended in fresh media, counted, and cells were plated at 0.4×10^6 cell/mL in a T150 flask. […]
readout-kind: IC50 (nM)

With MOLM-13 cells as the test system, CCn1c(CO)nn(-c2cc3c(cc2F)C(=O)N(c2c(C)cnc(OC)c2Cl)CN3C(C)C)c1=O [Example 32] showed IC50 of 5.96

With MOLM-13 cells as the test system, CC[C@@H](C)[C@H]1CN(c2c(F)cccc2Cl)C(=O)c2cc(F)c(-n3nc(CO)n(CC)c3=O)cc21 (relative stereo) [Example 72] showed IC50 of 6.57

With MOLM-13 cells as the test system, C=C(C)C1CN(c2cc(C)ccc2F)C(=O)c2cc(F)c(-n3nc(CO)n(CC)c3=O)cc21 (racemic) [Example 38] showed IC50 of 36.3

A. C=C(C)[C@@H]1CN(c2ccccc2Cl)C(=O)c2cc(F)c(-n3nc(CO)n(CC)c3=O)cc21 (stereo in doubt) [Example 34]
B. CCn1c(CO)nn(-c2nc3c(cc2F)C(=O)N(c2c(F)cccc2Cl)CN3C2CC2)c1=O [Example 9]
For the two items A and B , which reports the higher IC50 value? Indicate which entry you chose by stating its label.
B

A. CCn1c(CO)nn(-c2cc3c(cc2F)C(=O)N(c2c(F)cccc2Cl)C(C)(C)N3C(C)C)c1=O [Example 3]
B. CCn1c(CO)nn(-c2nc3c(cc2F)C(=O)N(c2c(F)cccc2Cl)CN3C2CCC2)c1=O [Example 7]
For the two items A and B , which reports the higher IC50 value? Indicate which entry you chose by stating its label.
A
(A: 440 nM, B: 1.7 nM)
